Answer each item with its documented AUC.
Assay: In vivo pharmacokinetic assay in rats (intravenous injection and oral administration)
Conditions: male, rat, plasma; SD rats, oral administration, 5 mg/kg
One number for each entry, in ng·h/mL.

The cases that follow already have their AUC on record.
>>> endpoint_result("C[C@@H](Cc1c[nH]c(=O)c(C(F)(F)F)c1)OC(=O)N1CCN(c2ncc(C(F)(F)F)cn2)[C@@H](C)C1 [Example 93]")
3830
>>> endpoint_result("O=C(OCCc1c[nH]c(=O)c(C(F)(F)F)c1)N1CCN(c2ncc(C(F)(F)F)cn2)CC1 [Example 3]")
13800
>>> endpoint_result("C[C@@H]1CN(c2ncc(C(F)(F)F)cn2)CCN1C(=O)OCCc1c[nH]c(=O)c(C(F)(F)F)c1 [Example 109]")
5380

Let us move to another entry and its AUC.
(Q) Using the record for C[C@@H](Cc1c[nH]c(=O)c(C(F)(F)F)c1)OC(=O)N1CCN(c2ncc(C(F)(F)F)cn2)CC1 (single isomer, unassigned) [Example 35] , report its AUC.
(A) 1060
